- Tested on: M14 melanoma
- assay_explanation: NCI tumour cell line growth inhibition, 48 h
assay_metric: TGI

For O=C(c1ccccc1)n1[nH]c(=O)n(-c2ccc(Cl)cc2)c1=O , what is its reported TGI? > 100 µM

Entry CS(=O)(=O)CS(=O)CS(=O)CS(=O)CC(NC(=O)CCC(N)C(=O)O)C(=O)O (configuration not stated) has what TGI? > 100 µM

For the molecule CCc1cc2c(oc3c4ccccc4ccc23)c(=O)[nH]1 , what TGI is on record? > 10 µM

Fill in the blank: the reported TGI of CC(C)CC(=O)CC(O)C(Cl)(Cl)Cl (configuration not stated) is ____. > 100 µM

Entry Cc1nc2ccccc2cc1C[N+]12CN3CN(CN(C3)C1)C2 has what TGI? 39.1 µM

Which TGI is reported for this molecule? O=C(CCC(=O)OCC1OC(O)(CC2OC(CO)C(O)C(O)C2O)C(O)C1O)OCc1ccccc1 (configuration not stated) > 100 µM

I have this molecule here, O=C1CC(c2c[nH]c3ccccc23)C(=O)N1c1ccccc1 (configuration not stated) , and I need its recorded TGI. > 100 µM

# query: TGI of entry COc1cc(/C=C2\CCc3ccccc3C2=O)cc(OC)c1OC 30 µM

// query TGI value for entry CC1(C)CC[C@]2(C(=O)O)CC[C@]3(C)[C@H](CC[C@@H]4[C@@]5(C)CCC(=O)C(C)(C)[C@@H]5CC[C@]43C)[C@H]2[C@H]1OC(=O)C(F)(F)F 27 µM

I'd like to know its TGI. The molecule in question is C=CCNC(=S)OCCCCCCCCCC 32.7 µM

May I ask what TGI has been recorded for CN(C)CCCC(=O)Nc1ccc(Cn2nnc3c2C(=O)c2nnn(Cc4ccc(NC(=O)CCCN(C)C)cc4)c2C3=O)cc1 ? 24.3 µM

Data request, read-out TGI, for Cc1cccc(N2C(=O)C(=O)C(c3nc4ccccc4s3)C(=O)C2=O)c1C > 100 µM

If you can, please state the reported TGI value of CC(C)(CCC(C)(C)c1ccccc1)c1ccccc1 . 52.7 µM

Request the reported TGI associated with C=CCNc1cccc2c1C(=O)c1ccccc1C2(O)CC=C (configuration not stated) 41 µM

Look at this molecule and give its reported TGI. CC(C)C(/C=C/c1ccccc1)=N\NC(=S)NN > 100 µM

So what does the record say about TGI for CCOC(=O)CCC(NC(=O)c1ccc(NCc2ccc3nc(-c4ccccc4)c(Cl)nc3c2)c2ccccc12)C(=O)OCC (configuration not stated) ? > 100 µM

GET /values?readout=TGI&item= Cc1cnc2[nH]c(-c3cccc(Cl)c3)cc(=O)c2c1 > 100 µM

Which TGI value is on record for CCOC(=O)/C=C1/Nc2cc(F)c(F)cc2NC1=O ? > 100 µM

Which value of TGI has been reported for Cc1ccc(CC(=O)Nc2ccc(NC(=O)CNC(=O)/C=C/c3ccc(-c4ccccc4)cc3)cc2C(=O)c2ccccc2)cc1 in the records? 17.3 µM

Consider the molecule N#Cc1ccc2oc3ccc(C#N)cc3c(=O)c2c1 and give its measured TGI. > 100 µM

Entry under review: CSc1nc(=O)c(C#N)c(-c2ccccc2)n1C1OC(COC(C)=O)C(OC(C)=O)C(OC(C)=O)C1OC(C)=O (configuration not stated) . Reported TGI? > 100 µM

Which TGI value belongs to C=C(C(=O)OC)[C@@H]1C[C@@H](O)[C@]2(C)CC/C=C(\C)CCC[C@H](C)[C@H](O)C1O2 ? > 100 µM

Would you mind telling me what TGI value was observed for CC(C)[C@@H](CS(=O)(=O)C(C)C)N1C(=O)[C@@](C)(CC(=O)O)C[C@H](c2cccc(Cl)c2)[C@H]1c1ccc(Cl)cc1 ? 59.6 µM

Tell me the measured TGI of Cc1nn(C)c(=S)n(C)c1=O , please. > 100 µM

Looking for the measured TGI of CC1=N/C(=C\c2ccc([N+](=O)[O-])cc2)C(=O)O1 , can you help? > 100 µM

Give the measured TGI of NC(CNc1ccc(O)cc1)C(=O)O (configuration not stated) . > 100 µM

Tell me the measured TGI of CC1CN=C(N(C)C(=O)Nc2ccc(Cl)c(Cl)c2)S1 (configuration not stated) , please. 38 µM

Fill in the blank: the reported TGI of CC1=CC(=O)/C(=C/N2CCNC2=S)C(=O)O1 is ____. > 100 µM

Need TGI of COc1cc(/C=C/C(=O)c2cc(OC)c(OC)c(OC)c2)cc(OC)c1OC , thanks. 12.7 µM

Fill in the blank: the reported TGI of O=C(CC(=O)Nc1ccccc1Cl)NNC(Sc1ccccc1)c1cc(N=Nc2ccc(Br)cc2)ccc1O (configuration not stated) is ____. 2.68 µM

Which TGI is reported for this molecule? Cc1ccc(-n2c(-c3ccc(Cl)cc3)cs/c2=N\NC(=O)COc2n[nH]c(=O)c3ccccc23)cc1 > 100 µM

For the molecule shown here, Clc1ccc(-c2cn(-c3ccccc3)c(-c3ccccc3)n2)c(Cl)c1 , give the reported TGI. > 15.1 µM

What TGI value was documented for this molecule, COc1ccc(/C=C/C(c2cc(OC)c(OC)c(OC)c2)n2cncn2)cc1O (configuration not stated) ? 5.12 µM

Sample COc1ccc(Nc2c[nH]c(=O)[nH]c2=O)cc1 — what was its TGI? > 100 µM

Look up TGI for this molecule: Cc1ccc(Nc2nc(NS(=O)(=O)c3cc(C)c(Cl)cc3S)n[nH]2)cc1 > 100 µM

TGI lookup needed for O=c1cc2cc(O)[nH]c(=O)c2c(O)[nH]1 , thanks. > 100 µM

Quick one: TGI for COC(=O)C(=O)C(C#N)c1ccc(Cl)c(Cl)c1 (configuration not stated) ? > 100 µM

Which TGI is reported for this molecule? Cc1ccc(C2(c3ccc(C)c(O)c3C)CCN(C)CC2)c(C)c1O > 100 µM

So what does the record say about TGI for O=[N+]([O-])c1ccc(Cl)cc1N/N=C/c1cccs1 ? > 100 µM

Fill in: TGI of CC(C)(Oc1ccc(C(=O)c2ccc(Cl)cc2)cc1Cl)C(=O)N1CCN(c2ccccc2)CC1 is ___ > 100 µM

Find the recorded TGI belonging to COC(=O)c1ccccc1N=Cc1ccc(N(CCC#N)S(=O)(=O)c2ccccc2)cc1 and report it. > 100 µM

// TGI lookup, key: Cc1oc2c(C)c3oc(=O)cc(C)c3cc2c1CN > 100 µM
